Reference source for all entries: PubChem BioAssay (NCI)

System: OVCAR-3 ovarian
Experiment: NCI tumour cell line growth inhibition, 384-well format
measuredProperty: TGI (µM)
# output: bare number, implied unit µM

Worked examples, 2 compounds total:
(Q) Specify TGI for CN(C)Cc1c(C(=O)NCCOc2ccc(C(=O)NO)cc2)oc2ccccc12 and stop.
(A) 0.626

(Q) Specify TGI for C=CC(=O)N1CC[C@H](n2nc(C#Cc3cc(OC)cc(OC)c3)c3c(N)ncnc32)C1 and stop.
(A) 17.6

Others:
(Q) Specify TGI for Cc1ccccc1C(C(=O)NC1CCCCC1)N(C(=O)CNc1ccc(C#N)cc1)c1cccc(F)c1 (centres undefined) and stop.
(A) 35.3
